ReproTracker results Neural rosette-like cells data for hiPSCs differentiating into neural rosette-like cells follow.

Worked examples, 8 molecules total:
O=c1[nH]cc(F)c(=O)[nH]1 [5-Fluorouracil] ... Negative
NC(=O)N1c2ccccc2C=Cc2ccccc21 [Carbamazepine] ... Positive
NC(=O)c1ncn([C@@H]2O[C@H](CO)[C@@H](O)[C@H]2O)n1 [Ribavirin] ... Positive
N[C@@H](CC(=O)N1CCn2c(nnc2C(F)(F)F)C1)Cc1cc(F)c(F)cc1F [Sitagliptin] ... Negative
CN(Cc1cnc2nc(N)nc(N)c2n1)c1ccc(C(=O)N[C@@H](CCC(=O)O)C(=O)O)cc1 [Methotrexate] ... Negative
CN1C(=O)OC(C)(C)C1=O [Trimethadione] ... Negative
CS(=O)(=O)c1ccc(C(=O)Nc2ccc(Cl)c(-c3ccccn3)c2)c(Cl)c1 [Vismodegib] ... Positive
CCCC(CCC)C(=O)O [Valproic acid] ... Negative

Give ReproTracker results Neural rosette-like cells for all molecules that follow.
1. O=C1NS(=O)(=O)c2ccccc21 [Saccharin]
2. O=C1CCC(N2C(=O)c3ccccc3C2=O)C(=O)N1 (stereo not shown) [Thalidomide]

[A]
Negative
Negative
